System: ALOMY (blackgrass)
Test: Pre-plant incorporated (PPI) herbicidal activity, cool season
Type: in vivo, Alopecurus myosuroides
Conditions: weed, PPI application, 300 g/ha
measure.name: Percent inhibition ALOMY (%)

chemical_string=C=C(CC(F)(F)S(=O)(=O)c1ncn(C(=O)N(CC)CC)n1)C[Si](C)(C)C measurement_units=% measurement=50
chemical_string=CCN(CC)C(=O)n1cnc(S(=O)(=O)C(F)(F)C(F)(F)Br)n1 measurement_units=% measurement=100
chemical_string=CCN(CC)C(=O)n1cnc(S(=O)(=O)C(F)(F)SCC(=O)OC)n1 measurement_units=% measurement=45
chemical_string=CCN(CC)C(=O)n1cnc(S(=O)(=O)C(F)(F)SC)n1 measurement_units=% measurement=100
chemical_string=CCN(CC)C(=O)n1cnc(S(=O)(=O)C(F)(F)Cl)n1 measurement_units=% measurement=99
chemical_string=CCN(CC)C(=O)n1cnc(S(=O)(=O)C(F)(F)C(F)F)n1 measurement_units=% measurement=100
chemical_string=CCN(CC)C(=O)n1cnc(S(=O)(=O)C(F)(F)F)n1 measurement_units=% measurement=100
chemical_string=CCN(CC)C(=O)n1cnc(S(=O)(=O)C(F)(F)SCCOC)n1 measurement_units=% measurement=99
chemical_string=CCN(CC)C(=O)n1cnc(S(=O)(=O)C(F)(F)SCc2ccccc2)n1 measurement_units=% measurement=95

* * *

Test system: SASKR (russian thistle)
Assay: Pre-emergence herbicidal activity, cool season
Format: in vivo, Salsola kali
Conditions: lowest tested rate with 80% or greater inhibition; rates 300, 100, 30, 10 g/ha; about 14 days
measure.name: Pre-emergence activity GR80, SASKR

chemical_string=O=C(N1CCOCC1)n1cnc(S(=O)(=O)C(F)(F)Cl)n1 measurement=[empty]
chemical_string=CCN(CC)C(=O)n1cnc(S(=O)(=O)C(F)(F)SCCO)n1 measurement=[empty]
chemical_string=CON(C)C(=O)n1cnc(S(=O)(=O)C(F)(F)C(F)(F)Br)n1 measurement="100 g/ha"
chemical_string=CCOC(=O)C(F)(F)S(=O)(=O)c1ncn(C(=O)N(CC)CC)n1 measurement=[empty]
chemical_string=CCSC(F)(F)S(=O)(=O)c1ncn(C(=O)N(C)C)n1 measurement=[empty]

* * *

System: SINAR (wild mustard)
Experiment: Pre-plant incorporated (PPI) herbicidal activity, cool season
Assay type: in vivo, Sinapis arvensis
Settings: Brassica; weed, PPI application, 100 g/ha; read-out: Percent inhibition SINAR
measure.name: inhibition at 100 g/ha (%)

chemical_string=CCSC(F)(F)S(=O)(=O)c1ncn(C(=O)N(CC)CC)n1 measurement=95
chemical_string=CCN(CC)C(=O)n1cnc(S(=O)(=O)C(F)(F)Br)n1 measurement=100
chemical_string=C=C(Br)CC(F)(F)S(=O)(=O)c1ncn(C(=O)N(CC)CC)n1 measurement=100
chemical_string=C=CCC(F)(F)S(=O)(=O)c1ncn(C(=O)N(CC)CC)n1 measurement=90
chemical_string=C=C(C)CC(F)(F)S(=O)(=O)c1ncn(C(=O)N(CC)CC)n1 measurement=80

* * *

Tested on: oilseed rape (BRSNS)
Test: Selectivity test, PPI, cool season crop
Assay type: in vivo, Brassica napus
Conditions: Brassica napus, PPI application, 100 g/ha, read-out: Percent inhibition BRSNS
compounds and their reported inhibition at 100 g/ha
measure.name: inhibition at 100 g/ha (%)

chemical_string=CCSC(F)(F)S(=O)(=O)c1ncn(C(=O)N(CC)CC)n1 target_or_test_system="oilseed rape (BRSNS)" measurement=0
chemical_string=C=CCC(F)(F)S(=O)(=O)c1ncn(C(=O)N(CC)CC)n1 target_or_test_system="oilseed rape (BRSNS)" measurement=0
chemical_string=CCN(CC)C(=O)n1cnc(S(=O)(=O)C(F)(F)Br)n1 target_or_test_system="oilseed rape (BRSNS)" measurement=20
chemical_string=C=C(Br)CC(F)(F)S(=O)(=O)c1ncn(C(=O)N(CC)CC)n1 target_or_test_system="oilseed rape (BRSNS)" measurement=0

* * *

Overview of recorded inhibition at 300 g/ha for various compounds
System: SASKR (russian thistle)
Assay: Pre-plant incorporated (PPI) herbicidal activity, cool season
Type: in vivo, Salsola kali
Details: Salsola kali; weed, PPI application, 300 g/ha; read-out: Percent inhibition SASKR
measure.name: inhibition at 300 g/ha

compound="CCN(CC)C(=O)n1cnc(S(=O)(=O)C(F)(F)Br)n1 [Example 1]" measurement=100%
compound="CCSC(F)(F)S(=O)(=O)c1ncn(C(=O)N(CC)CC)n1 [Example 8]" measurement=90%
compound="C=C(C)CC(F)(F)S(=O)(=O)c1ncn(C(=O)N(CC)CC)n1 [Example 18]" measurement=80%
compound="C=C(Br)CC(F)(F)S(=O)(=O)c1ncn(C(=O)N(CC)CC)n1 [Example 19]" measurement=60%
compound="C=CCC(F)(F)S(=O)(=O)c1ncn(C(=O)N(CC)CC)n1 [Example 17]" measurement=60%

* * *

Each entry below lists one item and its recorded Pre-emergence activity (GR80) AEGCY value.
System: AEGCY (jointed goatgrass)
Test: Pre-emergence herbicidal activity, cool season
Type: in vivo, Aegilops cylindrica
Conditions: GR80 = lowest tested rate (300, 100, 30, 10 g/ha) with 80% or greater inhibition; approx. 14 days after treating; 18/13° C.
measure.name: Pre-emergence activity (GR80) AEGCY (g/ha)

compound="COCCN(C)C(=O)n1cnc(S(=O)(=O)C(F)(F)C(F)(F)Br)n1 [Example 76]" measure_name="Pre-emergence activity (GR80) AEGCY" measurement=300
compound="C=CCN(C)C(=O)n1cnc(S(=O)(=O)C(F)F)n1 [Example 30]" measure_name="Pre-emergence activity (GR80) AEGCY" measurement=100
compound="O=C(N1CCCC1)n1cnc(S(=O)(=O)C(F)(F)Br)n1 [Example 23]" measure_name="Pre-emergence activity (GR80) AEGCY" measurement=300
compound="CCCN(CC)C(=O)n1cnc(S(=O)(=O)C(F)(F)SCC)n1 [Example 51]" measure_name="Pre-emergence activity (GR80) AEGCY" measurement=300

* * *

Tested on: CONAR (field bindweed)
Experiment: Pre-plant incorporated (PPI) herbicidal activity, warm season
Assay type: in vivo, Convolvulus arvensis
Details: GR80 = lowest tested rate with 80% or greater inhibition, approx. 14 days after treating, 30/21° C.
measure.name: PPI activity (GR80) CONAR (g/ha)

chemical_string=CCN(CC)C(=O)n1cnc(S(=O)(=O)C(F)(F)Br)n1 target_or_test_system="CONAR (field bindweed)" measure_name="PPI activity (GR80) CONAR" measurement=100
chemical_string=CCN(CC)C(=O)n1cnc(S(=O)(=O)C(F)(F)C(F)F)n1 target_or_test_system="CONAR (field bindweed)" measure_name="PPI activity (GR80) CONAR" measurement=100
chemical_string=C=C(C)CC(F)(F)S(=O)(=O)c1ncn(C(=O)N(CC)CC)n1 target_or_test_system="CONAR (field bindweed)" measure_name="PPI activity (GR80) CONAR" measurement=100
chemical_string=CCSC(F)(F)S(=O)(=O)c1ncn(C(=O)N(CC)CC)n1 target_or_test_system="CONAR (field bindweed)" measure_name="PPI activity (GR80) CONAR" measurement=300
chemical_string=CCN(CC)C(=O)n1cnc(S(=O)(=O)C(F)(F)SCC(=O)OC)n1 target_or_test_system="CONAR (field bindweed)" measure_name="PPI activity (GR80) CONAR" measurement=100

* * *

Test system: PANMI (wild proso millet)
Test: Pre-emergence herbicidal activity, warm season
Format: in vivo, Panicum miliaceum
Conditions: GR80 = lowest tested rate (300, 100, 30, 10 g/ha) with 80% or greater inhibition; approx. 14 days after treating; 30/21° C.
measure.name: Pre-emergence activity (GR80) PANMI (g/ha)

chemical_string=C=CCN(C)C(=O)n1cnc(S(=O)(=O)C(F)(F)Cl)n1 target_or_test_system="PANMI (wild proso millet)" measure_name="Pre-emergence activity (GR80) PANMI" measurement=300
chemical_string=C=CCN(C)C(=O)n1cnc(S(=O)(=O)C(F)(F)Br)n1 target_or_test_system="PANMI (wild proso millet)" measure_name="Pre-emergence activity (GR80) PANMI" measurement=300
chemical_string=C#CCN(C)C(=O)n1cnc(S(=O)(=O)C(F)(F)SCC)n1 target_or_test_system="PANMI (wild proso millet)" measure_name="Pre-emergence activity (GR80) PANMI" measurement=300
chemical_string=C=C(C)CC(F)(F)S(=O)(=O)c1ncn(C(=O)N(CC)CC)n1 target_or_test_system="PANMI (wild proso millet)" measure_name="Pre-emergence activity (GR80) PANMI" measurement=30
chemical_string=CCN(CC)C(=O)n1cnc(S(=O)(=O)C(F)(F)c2ccccc2)n1 target_or_test_system="PANMI (wild proso millet)" measure_name="Pre-emergence activity (GR80) PANMI" measurement=100
chemical_string=CN(C(=O)n1cnc(S(=O)(=O)C(F)(F)C(F)(F)Br)n1)C1CCCCC1 target_or_test_system="PANMI (wild proso millet)" measure_name="Pre-emergence activity (GR80) PANMI" measurement=300
chemical_string=CCSC(F)(F)S(=O)(=O)c1ncn(C(=O)N2CCCC2)n1 target_or_test_system="PANMI (wild proso millet)" measure_name="Pre-emergence activity (GR80) PANMI" measurement=100
chemical_string=CCOC(=O)C(F)(F)S(=O)(=O)c1ncn(C(=O)N(CC)CC)n1 target_or_test_system="PANMI (wild proso millet)" measure_name="Pre-emergence activity (GR80) PANMI" measurement=300
chemical_string=CN(C)C(=O)n1cnc(S(=O)(=O)C(F)(F)Br)n1 target_or_test_system="PANMI (wild proso millet)" measure_name="Pre-emergence activity (GR80) PANMI" measurement=300
chemical_string=CN(C)C(=O)n1cnc(S(=O)(=O)C(F)(F)C(F)F)n1 target_or_test_system="PANMI (wild proso millet)" measure_name="Pre-emergence activity (GR80) PANMI" measurement=300
chemical_string=CCN(CC)C(=S)n1cnc(S(=O)(=O)C(F)(F)C(F)F)n1 target_or_test_system="PANMI (wild proso millet)" measure_name="Pre-emergence activity (GR80) PANMI" measurement=300
chemical_string=CCCN(CC)C(=O)n1cnc(S(=O)(=O)C(F)(F)Br)n1 target_or_test_system="PANMI (wild proso millet)" measure_name="Pre-emergence activity (GR80) PANMI" measurement=300
chemical_string=CN(Cc1ccccc1)C(=O)n1cnc(S(=O)(=O)C(F)(F)C(F)F)n1 target_or_test_system="PANMI (wild proso millet)" measure_name="Pre-emergence activity (GR80) PANMI" measurement=300
chemical_string=CCSC(F)(F)S(=O)(=O)c1ncn(C(=O)N(C)CCOC)n1 target_or_test_system="PANMI (wild proso millet)" measure_name="Pre-emergence activity (GR80) PANMI" measurement=100
chemical_string=CN(C(=O)n1cnc(S(=O)(=O)C(F)F)n1)C1CCCCC1 target_or_test_system="PANMI (wild proso millet)" measure_name="Pre-emergence activity (GR80) PANMI" measurement=300
chemical_string=CCCN(CC)C(=O)n1cnc(S(=O)(=O)C(F)F)n1 target_or_test_system="PANMI (wild proso millet)" measure_name="Pre-emergence activity (GR80) PANMI" measurement=300
